These measurements were taken from PubChem BioAssay AID2513.

experiment: Counterscreen Assay for Enhancers of SMN2 Splice Variant Expression: Modulation of SMN1 Expression for Probe SAR; details: HEK293 SMN1-luciferase reporter, luminescence, 30-36 h; series mostly up to 46.1 µM
Inconclusive results are not listed. The source made the active and inactive calls. Calls come from the whole dose curve; as a rule, active = well fitted curve in the direction sought with a large enough effect; inconclusive = small, poorly fitted or top-dose-only effect, or another doubt; inactive = no such curve, though single readings can be large or run the other way.
Possible outcomes: class 1 = active, class 0 = inactive

INSERT INTO results (smiles_entry, label) VALUES
  ('NC(=O)C1CCN(c2nc(-c3ccccc3C(F)(F)F)cs2)CC1', 'class 0'),
  ('Cc1noc(C)c1-c1csc(N2CCC(C(N)=O)CC2)n1', 'class 0'),
  ('NC(=O)C1CCN(c2nc(-c3ccccc3-c3ccccc3)cs2)CC1', 'class 0'),
  ('COc1ccc(-c2csc(N3CCC(C(N)=O)CC3)n2)cc1', 'class 0'),
  ('NC(=O)C1CCN(c2nc(-c3ccccc3Br)cs2)CC1', 'class 0'),
  ('CS(=O)(=O)c1cccc(-c2csc(N3CCC(C(N)=O)CC3)n2)c1', 'class 0'),
  ('NC(=O)C1CCN(c2nc(-c3cccc(N)c3)cs2)CC1', 'class 0'),
  ('CN(C)C(=O)c1cccc(-c2csc(N3CCC(C(N)=O)CC3)n2)c1', 'class 0'),
  ('NC(=O)C1CCN(c2nc(-c3ccc4occc(=O)c4c3)cs2)CC1', 'class 0'),
  ('CC(=O)c1cccc(-c2csc(N3CCC(C(N)=O)CC3)n2)c1', 'class 0'),
  ('Brc1ccc(-c2csc(N3CCCCC3)n2)cc1', 'class 0'),
  ('Cn1ccc2cc(-c3csc(N4CCC(C(N)=O)CC4)n3)ccc21', 'class 0'),
  ('NC(=O)C1CCN(c2nc(-c3cccc(Cl)c3)cs2)CC1', 'class 0'),
  ('NC(=O)C1CCN(c2nc(-c3ccc4ccccc4c3)cs2)CC1', 'class 0'),
  ('NC(=O)C1CCN(c2nc(-c3ccc4c(c3)OCCO4)cs2)CC1', 'class 1'),
  ('NC(=O)C1CCN(c2nc(-c3cc4ccccc4o3)cs2)CC1', 'class 0'),
  ('CN(C)c1ccccc1-c1csc(N2CCC(C(N)=O)CC2)n1', 'class 0'),
  ('CC(=O)c1ccc(-c2csc(N3CCC(C(N)=O)CC3)n2)cc1', 'class 0');
